Source listed as patent US12123876B2.

Here the recorded IC50 is given for each entry.
Molecular target: recombinant human intelectin-1 (Homo sapiens, UniProt Q8WWA0, V109D)
Sequence (Q8WWA0 19-298 V109D): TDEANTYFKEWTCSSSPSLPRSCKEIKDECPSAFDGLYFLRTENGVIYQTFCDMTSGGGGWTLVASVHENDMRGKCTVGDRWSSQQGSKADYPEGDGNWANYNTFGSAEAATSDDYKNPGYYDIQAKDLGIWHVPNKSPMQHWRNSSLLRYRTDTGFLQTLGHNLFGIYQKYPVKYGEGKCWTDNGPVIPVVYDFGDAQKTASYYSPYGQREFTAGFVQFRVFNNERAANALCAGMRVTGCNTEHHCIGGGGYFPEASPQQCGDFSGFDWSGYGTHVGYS
Experiment: Biacore inhibition of intelectin binding to diol structure
Settings: inhibition of intelectin (0.5 μg/mL) binding
MEASUREMENT_NAME: IC50

                                   molecule  measurement_name  endpoint_value
0  O=C1O[C@H]([C@@H](O)CO)C(O)=C1O [L-Ascorbic acid]              IC50       ≤ 1000 µM
1  O=C[C@H](O)[C@H](O)[C@H](O)CO [D-Ribose]              IC50       ≤ 1000 µM
2  CC(O)CO (centres unmarked) [1,2-Propanediol]              IC50          900 µM
3        C[C@@H](O)CO [(R)-1,2-Propanediol]              IC50         1000 µM
4  O=C[C@@H](O)[C@@H](O)[C@@H](O)CO [L-Ribose]              IC50       ≤ 1000 µM
5  CCCC(=O)OCC(O)CO (centres unmarked) [Monobutyrin]              IC50          800 µM
6                       OCC(O)CO [Glycerol]              IC50       ≤ 1000 µM
7  CCC(O)CO (centres unmarked) [1,2-Butanediol]              IC50       ≤ 1000 µM
